Recorded boiling point, one value per entry.
Property Measured: boiling point

>>> test_result("O=C1CCc2ccccc2C1")
"237 °C"
>>> test_result("C[C@H]1C=CC2C(C1)C2(C)C (stereo in doubt)")
"169 °C"
>>> test_result("Brc1ccc(I)cc1")
"252 °C"
>>> test_result("CCCC(C)c1ccccc1 (stereo not drawn)")
"199 °C"
>>> test_result("CCC(C)COC(C)=O (stereo not drawn)")
"140 °C"
>>> test_result("O=C(C=Cc1ccccc1)OCc1ccccc1")
"350 °C"
>>> test_result("CCc1ccccc1OC")
"187 °C"
>>> test_result("CCOC(=O)C(Br)CC (stereo not drawn)")
"177 °C"

---

Recorded log10 vapour pressure (mmHg), one value per entry.
Property Measured: log10 vapour pressure (mmHg)

>>> test_result("CCCCCCCCCl")
-0.0223
>>> test_result("Cc1ccc2cc3ccccc3cc2c1")
-5.27
>>> test_result("CCN(CC)C(=O)n1cnc(S(=O)(=O)c2c(C)cc(C)cc2C)n1")
-10.6
>>> test_result("CC(C)c1cc(C(C)C)c(C(C)C)cc1C(C)C")
-2.7
>>> test_result("CCS(=O)CCSP(=O)(OC)OC (configuration not stated)")
-4.55
>>> test_result("CNC(=O)Oc1cccc2c1OC(C)(C)C2")
-5.31
>>> test_result("Cc1cccc2ccccc12")
-1.17
>>> test_result("CCCCCCCC/C=C\\CCCCCCCC(=O)O")
-5.85
>>> test_result("CCC(C)CCCC(C)C (configuration not stated)")
0.469
>>> test_result("Cc1cc(O)ccc1Cl")
-1.3
>>> test_result("Clc1cc(Cl)c2c(c1Cl)Oc1ccccc1O2")
-6.12
>>> test_result("CNOC")
2.58
>>> test_result("FC(F)C(F)(F)OCC(F)(F)F")
2.33
>>> test_result("O=[N+]([O-])c1ccc(F)cc1O")
-1.64
>>> test_result("CCCOCCC")
1.8
>>> test_result("C=C(Cl)CSC(=S)N(CC)CC")
-2.66
>>> test_result("FC1(F)C(F)(F)C(F)(F)C1(F)F")
3.37
>>> test_result("COC(=O)CCCCC(=O)OC")
-1.22
>>> test_result("Cc1cccc(C)c1O")
-0.767
>>> test_result("CC1=CCC(C(C)(C)O)CC1 (configuration not stated)")
-1.37
>>> test_result("CCCCCCCC=O")
0.0719
>>> test_result("c1ccc2c(c1)Cc1ccccc1-2")
-3.22
>>> test_result("CC(C)N1C(=O)N(c2ccccc2)CSC1=NC(C)(C)C")
-5.03
>>> test_result("Fc1c(F)c(F)c(Br)c(F)c1F")
0.903
>>> test_result("COP(=S)(OC)Oc1ccc(SC)c(C)c1")
-4.98
>>> test_result("O=C1CCC1")
1.63
>>> test_result("C[Se]C")
2.38
>>> test_result("Cc1ccc(Cl)cc1Cl")
-0.339
>>> test_result("CN(C)C(=O)SCCCCOc1ccccc1")
-5.9
>>> test_result("O=[N+]([O-])c1ccc(Cl)c(Cl)c1")
-1.99
>>> test_result("CCc1ccccc1N")
-0.77
>>> test_result("Cc1ccc(C(=O)COc2c(C(=O)c3ccc(Cl)c(C)c3Cl)c(C)nn2C)cc1")
-7.01
>>> test_result("CCCCCCCCCCCCCO")
-3.36
>>> test_result("CC(C)CCC(C)O (configuration not stated)")
0.307
>>> test_result("c1ccc(C(c2ccccc2)c2ccccc2)cc1")
-5.25
>>> test_result("c1ccc(Sc2ccccc2)cc1")
-2.12
>>> test_result("CCCCCCCCCCCCCCCCCCCCCCC")
-4.76
>>> test_result("CCCCCBr")
1.1
>>> test_result("COP(=S)(OC)Oc1ccc([N+](=O)[O-])c(C)c1")
-4.27
>>> test_result("CCSCCSP(=O)(OC)OC")
-3.52
>>> test_result("Oc1ccc(/N=N/c2ccccc2)cc1")
-6.64
>>> test_result("Cc1ccc(S)cc1")
-0.191
>>> test_result("COc1nn(CSP(=S)(OC)OC)c(=O)s1")
-5.47
>>> test_result("O=C(OCc1ccccc1)c1ccccc1")
-3.65
>>> test_result("CC(=O)Cl")
2.46
>>> test_result("CCCCC(O)(Cn1cncn1)c1ccc(Cl)cc1Cl (configuration not stated)")
-6.87
>>> test_result("c1ccc2c(c1)CCC2")
0.166
>>> test_result("O=C(O)C1C2CCC(O2)C1C(=O)O (configuration not stated)")
-9.8
>>> test_result("CF")
3.46
>>> test_result("CCOP(=S)(OCC)Oc1nc(Cl)c(Cl)cc1Cl")
-4.69
>>> test_result("FC(Cl)C(F)(F)Cl (configuration not stated)")
2.79
>>> test_result("Brc1ccccn1")
-0.114
>>> test_result("CCCCCCCCCCCCCCCCC(=O)O")
-7.21
>>> test_result("CCC(CC)C(=O)O")
-0.726
>>> test_result("CC(C)c1ccc(N)cc1")
-1.08
>>> test_result("C=C(C)C(=O)OCCCC")
0.326
>>> test_result("CC(=O)NC(C)=O")
-2
>>> test_result("CCCCOB(OCCCC)OCCCC")
-0.279
>>> test_result("CCCCC(CC)CN1C(=O)C2C3C=CC(C3)C2C1=O (configuration not stated)")
-4.74
>>> test_result("Nc1ccc([N+](=O)[O-])c2c1C(=O)c1c(Cl)ccc(Cl)c1C2=O")
-12.4
>>> test_result("COP(=S)(OC)SCc1nc(N)nc(N)n1")
-6.01
>>> test_result("CCCCBr")
1.62
>>> test_result("CCc1c(C)cccc1C")
-0.132
>>> test_result("CCOP(=S)(OCC)Oc1ccc2c(C)c(Cl)c(=O)oc2c1")
-7.01
>>> test_result("N#CC(Br)(Br)C(N)=O")
-3.05
>>> test_result("CCCCCCCCCCS")
-1.44
>>> test_result("C=CC=O")
2.44

---

# binarize log10 vapour pressure (mmHg): threshold -2 inclusive, high side true, low side false

>>> group_label("O=CC=O")
"true"
>>> group_label("Cc1cc(OC(=O)N(C)C)n(C(C)C)n1")
"false"
>>> group_label("N#CC#N")
"true"
>>> group_label("Cc1c(N=C=O)cccc1N=C=O")
"true"
>>> group_label("COc1ccc(C(C)=O)cc1")
"false"
>>> group_label("O=[N+]([O-])c1cccc(Br)c1")
"true"
>>> group_label("C=CCNCC=C")
"true"
>>> group_label("Clc1cc(Cl)c(-c2cc(Cl)c(Cl)c(Cl)c2Cl)cc1Cl")
"false"
>>> group_label("O=C1CC(C(=O)O)CC(=O)C1=C(O)C1CC1 (stereo not drawn)")
"false"
>>> group_label("CCCCCCCCCCCO")
"false"
>>> group_label("Clc1ccc2ccccc2c1")
"true"
>>> group_label("O=C1CCCCCCC1")
"true"
>>> group_label("CCOC(=O)CCC(C)=O")
"true"
>>> group_label("Clc1cc2c(cc1Cl)Oc1cc(Br)c(Br)cc1O2")
"false"
>>> group_label("CCCCCCCC(=O)OC(C)C")
"true"
>>> group_label("CCC(C)c1ccccc1OC(=O)NC (stereo not drawn)")
"false"
>>> group_label("ClC(Cl)(Br)CBr")
"true"
>>> group_label("CCCCCCCCCCI")
"true"
>>> group_label("CCCC=O")
"true"
>>> group_label("CCNc1nc(Cl)nc(NC(C)C)n1")
"false"
>>> group_label("CCCOC(=O)CC")
"true"
>>> group_label("CC1(C)CON(Cc2ccccc2Cl)C1=O")
"false"
>>> group_label("CC(C)S")
"true"
>>> group_label("CC(C)CS")
"true"
>>> group_label("CNC(=O)Oc1cc(C)c(SC)c(C)c1")
"false"
>>> group_label("O=c1[nH]c2c(c(=O)n1C1CCCCC1)CCC2")
"false"
>>> group_label("ClCCOCOCCCl")
"true"
>>> group_label("Cn1cc(-c2ccccc2)c(=O)c(-c2cccc(C(F)(F)F)c2)c1")
"false"
>>> group_label("S=C=S")
"true"
>>> group_label("FC(F)(F)C(F)(F)C(F)(F)C(F)(F)N(C(F)(F)C(F)(F)C(F)(F)C(F)(F)F)C(F)(F)C(F)(F)C(F)(F)C(F)(F)F")
"true"
>>> group_label("CC(C)c1cccc(C(C)C)c1")
"true"
>>> group_label("CC1CCCCC1C (stereo not drawn)")
"true"
>>> group_label("Cn1c(=O)cc[nH]c1=O")
"false"

---

Recorded log10 vapour pressure (mmHg), one value per entry.
Property Measured: log10 vapour pressure (mmHg)

>>> test_result("CCCC(Cn1cncn1)c1ccc(Cl)cc1Cl (centres undefined)")
-5.56
>>> test_result("CNC(=O)/C=C(\\C)OP(=O)(OC)OC")
-5.66
>>> test_result("CCCCCC(=O)O")
-1.36
>>> test_result("FC(Cl)C(F)(F)F (centres undefined)")
3.46
>>> test_result("C=C(Cl)CCl")
1.79
>>> test_result("CCCc1cccc(C)c1")
0.425
>>> test_result("CC(=O)CC(C)C")
1.3
>>> test_result("O=C(O)C1CC1")
-0.62
>>> test_result("CCCCCCCCCCCCCCCC")
-2.84
